Attribution: patent US20240415819A1

Test system: Hs 746T (human gastric carcinoma cell line)
ASSAY DETAILS: 48 hr CTG viability assay, Hs 746T
Format: cell-based
ASSAY SETUP: Hs746T, 48 hr CTG, read-out: Hs 746T IC50
OBSERVABLE: IC50

Please give the measured IC50 for this molecule: Cc1ccc2cc1CNC(=O)[C@H](CCc1ccccc1)NC(=O)[C@@H](NC(=O)CCOc1ccccc1)CC(=O)N1CCCC(CCO2)C1 (stereo partly drawn)
< 100 nM

What about Cc1ccc2cc1CNC(=O)[C@H](CCc1ccccc1)NC(=O)[C@@H](NS(=O)(=O)Cc1ccccc1F)CC(=O)N1CCCC(CCO2)C1 (stereo partly drawn) ?
< 100 nM

What about Cc1ccc2cc1CNC(=O)[C@H](CCc1ccccc1)NC(=O)[C@@H](NC1CCC1)CC(=O)N1CCCC(CCO2)C1 (stereo partly drawn) ?
100 to 500 nM

What about Cc1ccc2cc1CNC(=O)[C@H](CCc1ccccc1)NC(=O)[C@@H](NC(=O)CCOCC1CC3CCC1C3)CC(=O)N1CCCC(CCO2)C1 (stereo partly drawn) ?
< 100 nM

What about Cc1ccc2cc1CNC(=O)[C@H](CCc1ccccc1)NC(=O)[C@@H](NC(=O)C1(CO)CCOCC1)CC(=O)N1CCCC(CCO2)C1 (stereo partly drawn) ?
< 100 nM

What about Cc1ccc2cc1CNC(=O)[C@H](CCc1ccccc1)NC(=O)[C@@H](NC(=O)C1CC3(CNC3)C1)CC(=O)N1CCCC(CCO2)C1 (stereo partly drawn) ?
< 100 nM

What about Cc1ccc2cc1CNC(=O)[C@H](CCc1ccccc1)NC(=O)[C@@H](NC(=O)CCN1CCC3(COC3)C1)CC(=O)N1CCCC(CCO2)C1 (stereo partly drawn) ?
< 100 nM

What about Cc1ccc2cc1CNC(=O)[C@H](CCc1ccccc1)NC(=O)[C@@H](NC(=O)Cc1ccccc1)CCNC(=O)N1CCCC(CCO2)C1 (stereo partly drawn) ?
< 100 nM

What about COc1ccc(OCCC(=O)N[C@H]2CC(=O)N3CCCC(CCOc4ccc(C)c(c4)CNC(=O)[C@H](CCc4ccccc4)NC2=O)C3)cc1 (stereo partly drawn) ?
< 100 nM

What about Cc1ccc2cc1CNC(=O)[C@H](CCc1ccccc1)NC(=O)[C@@H](NC(=O)C1CCCCC1)CC(=O)N1CCCC(CCO2)C1 (stereo partly drawn) ?
< 100 nM

What about Cc1ccc2cc1CNC(=O)[C@H](CCc1ccccc1)NC(=O)[C@@H](NC(=O)CCN1CCC3(CC1)COC3)CC(=O)N1CCCC(CCO2)C1 (stereo partly drawn) ?
< 100 nM

What about Cc1ccc2cc1CNC(=O)[C@H](CCc1ccccc1)NC(=O)[C@@H](NC(=O)CCNC(=O)C1CC3CCC1O3)CC(=O)N1CCCC(CCO2)C1 (stereo partly drawn) ?
< 100 nM
